These measurements were taken from patent US20070014720A1.

Biological target: T1, human CD20 (human, UniProt P11836 1-297)
T1 sequence (looked up): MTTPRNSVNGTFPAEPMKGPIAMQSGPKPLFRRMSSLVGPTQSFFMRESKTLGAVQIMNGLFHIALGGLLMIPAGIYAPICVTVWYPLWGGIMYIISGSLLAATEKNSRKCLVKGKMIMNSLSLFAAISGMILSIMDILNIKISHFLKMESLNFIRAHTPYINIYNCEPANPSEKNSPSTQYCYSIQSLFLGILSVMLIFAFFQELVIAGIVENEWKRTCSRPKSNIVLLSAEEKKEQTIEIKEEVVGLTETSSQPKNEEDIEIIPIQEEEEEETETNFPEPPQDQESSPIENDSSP
Experiment: cell-based or functional assay
Known EC50 µg/ml Daudi CDC of a selection of binders

Binder	EC50 µg/ml Daudi CDC
mAb 1.13.2 (antibody, human IgG1, V domains shown, Human IgG1 kappa; also called 1.13.1; 50-001H1_13_1) VH: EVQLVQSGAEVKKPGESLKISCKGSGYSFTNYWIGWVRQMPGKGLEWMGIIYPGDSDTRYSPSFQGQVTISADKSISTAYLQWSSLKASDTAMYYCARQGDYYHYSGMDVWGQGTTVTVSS VL: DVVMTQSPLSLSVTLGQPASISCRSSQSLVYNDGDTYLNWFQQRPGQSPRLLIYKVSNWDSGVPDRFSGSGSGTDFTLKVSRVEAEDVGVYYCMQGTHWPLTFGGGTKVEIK	~10 µg/mL
mAb 1.6.2 (antibody, human IgG1, V domains shown) VH: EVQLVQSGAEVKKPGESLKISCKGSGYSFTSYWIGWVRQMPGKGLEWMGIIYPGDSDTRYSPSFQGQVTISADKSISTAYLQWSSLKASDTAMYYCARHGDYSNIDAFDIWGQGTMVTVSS VL: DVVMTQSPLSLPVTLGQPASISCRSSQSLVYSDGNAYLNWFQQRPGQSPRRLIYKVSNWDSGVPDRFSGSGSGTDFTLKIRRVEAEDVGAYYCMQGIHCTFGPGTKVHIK	~10 µg/mL
mAb 1.2.1 (antibody, human IgG1, V domains shown, Human IgG1 kappa; also called 1.2.1.1; 50-001H1_2_1_1) VH: EVQLVQSGAEVKKPGESLKISCKGSGYSFTSYWIGWVRQMPGKGLEWMGIIYPGDSDTRYSPSFQGQVTISADKSISTAYLQWSSLKASDTAMYYCARLGDYYNYYGMDVWGQGTTVTVSS VL: DIVMTQTPLSSPVTLGQPASISCRSSQSLVHSDGKTYLSWLQQRPGQPPRLLIYKSSNRFSGVPDRFSGSGAGTDFTLKISRVEAEDVGVYYCVQATQFPITFGQGTRLEIK	> 10 µg/mL
